Entry source: the supplement of paper PMC10037445

# Test system: RAW-Dual
# assay: NF-kB SEAP reporter activity, fold change vs agonist alone; higher = enhanced NF-kB activity
# study-conditions: library stock concentration (final ~1000-fold dilution): 10 mM; cytotoxicity flag (confluency mask): not cytotoxic; agonist: MPLA (TLR4) […]
The full ranking holds about 2,900 compounds; the median of “NF-kB SEAP reporter activity, fold change vs agonist alone” is about 0.99, and the highest 2% start at about 2.6. Many of the other results were omitted from the sample, so the highest values are more common in it than they were.
NF-kB SEAP reporter activity reference
Answer using only a numeral; do not append any unit.

Check the records and state NF-kB SEAP reporter activity for CC1CNc2c(cccc2S(=O)(=O)NC(CCCNC(=N)N)C(=O)N2CCC(C)CC2C(=O)O)C1.O (stereo unspecified)
0.981
